- tested.system: Cytoplasmic tyrosine-protein kinase BMX (Homo sapiens) (UniProt P51813);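 also: reported value is the mean percent inhibition of BMX, from the GSK PKIS kinase inhibitor screen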
- Sequence (whole entry): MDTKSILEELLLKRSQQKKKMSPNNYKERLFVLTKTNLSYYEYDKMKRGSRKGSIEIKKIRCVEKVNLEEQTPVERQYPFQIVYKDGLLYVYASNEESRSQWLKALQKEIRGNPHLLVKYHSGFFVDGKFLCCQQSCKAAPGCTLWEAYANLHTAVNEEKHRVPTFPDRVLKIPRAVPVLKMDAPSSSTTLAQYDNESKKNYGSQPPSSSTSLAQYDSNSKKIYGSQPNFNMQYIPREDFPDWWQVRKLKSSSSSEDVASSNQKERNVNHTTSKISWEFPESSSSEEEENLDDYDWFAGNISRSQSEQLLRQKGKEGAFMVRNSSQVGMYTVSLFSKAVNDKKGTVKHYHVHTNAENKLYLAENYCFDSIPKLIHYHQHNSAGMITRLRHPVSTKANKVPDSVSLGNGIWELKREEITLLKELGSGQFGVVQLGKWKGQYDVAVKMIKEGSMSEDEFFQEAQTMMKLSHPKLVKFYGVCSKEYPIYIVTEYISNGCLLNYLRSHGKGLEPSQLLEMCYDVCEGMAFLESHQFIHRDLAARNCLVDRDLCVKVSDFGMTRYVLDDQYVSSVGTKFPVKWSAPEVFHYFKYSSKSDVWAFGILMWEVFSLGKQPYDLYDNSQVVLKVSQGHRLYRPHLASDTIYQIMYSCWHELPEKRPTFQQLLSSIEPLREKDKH
- condition.context: at 1 µM
Answer Criterion not met if inhibition is under 6%, and Criterion met if it is 6% or more.

In: Please check the record CCCN(CCS(C)(=O)=O)Cc1ccc(-c2ccc3ncnc(Nc4ccc(OCc5cccc(F)c5)c(Cl)c4)c3c2)o1 and state if its inhibition is at or above 6%.
Out: Criterion not met

In: Kindly determine if inhibition recorded for COc1cc(Nc2nccc(Nc3ccc4c(C)n[nH]c4c3)n2)cc(OC)c1OC is above or exactly 6%.
Out: Criterion met

In: Determine whether this compound has inhibition no lower than 6%: c1ccc(-c2nc3n(c2-c2ccc4c(c2)OCO4)CCC3)nc1
Out: Criterion not met

In: // inclusive: inhibition at least 6%? input: Nc1nc(-c2ccc(F)cc2)c(-c2ccc3ncccc3n2)s1
Out: Criterion met

In: Decide: is the reported value of inhibition for COC(=O)c1sc(-n2cnc3cc(OC)c(OC)cc32)cc1OCc1ccccc1C(F)(F)F equal to or greater than 6%?
Out: Criterion met
